- experimentalSystem: human neutrophil elastase (Homo sapiens, UniProt P08246)
- testName: In vitro assay of human neutrophil elastase (HNE)
- Assay type: biochemical
- conditionParameters: 118 nM purified human neutrophil elastase, pH 8.6, 15 min incubation at 30° C., MeO-succinyl-alanyl-alanyl-prolyl-valyl-p-nitroanilide substrate; read-out: HNE IC50
Structures can show the parent of a compound that is named as a salt.
measureName: IC50 (nM)

> print(dat)
                                   molecule  number
1  CCC[C@H]1C(=O)N(S(C)(=O)=O)[C@H]2CCN(C(=O)CN3CCCCCC3)[C@H]12 (relative stereo) [Example 104, hydrochloride]     574
2  C=CC[C@H]1C(=O)N(S(=O)(=O)c2cccc([N+](=O)[O-])c2)[C@H]2CCN(C(=O)OCc3ccccc3)[C@H]12 (relative stereo) [Example 38]     205
3  CCC[C@H]1C(=O)N(S(C)(=O)=O)[C@H]2CCN(C(=O)c3ccc(CN4CCCCC4)cc3)[C@H]12 (relative stereo) [Example 62]      10

* * *

- experimentalSystem: human neutrophil elastase (Homo sapiens, UniProt P08246)
- Sequence (P08246 30-267): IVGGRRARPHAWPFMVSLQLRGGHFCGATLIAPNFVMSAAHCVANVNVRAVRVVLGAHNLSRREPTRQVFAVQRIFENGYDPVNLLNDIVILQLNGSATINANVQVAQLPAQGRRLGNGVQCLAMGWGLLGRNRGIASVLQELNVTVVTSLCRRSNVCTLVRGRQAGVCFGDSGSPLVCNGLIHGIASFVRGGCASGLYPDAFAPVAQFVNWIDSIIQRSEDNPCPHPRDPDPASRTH
- testName: In vitro assay of human neutrophil elastase (HNE)
- Type: biochemical
- conditionParameters: 118 nM purified human neutrophil elastase, pH 8.6, 15 min incubation at 30° C., MeO-succinyl-alanyl-alanyl-prolyl-valyl-p-nitroanilide substrate; read-out: HNE IC50
pIC50: −log10 of the molar value. Where a name gives a salt, the structure may show the parent alone.
Param threshold (7) applies to pIC50; output Condition met when value >= threshold, Condition not met when value < threshold.

compound	experimentalSystem	categoryLabel
CCC[C@H]1C(=O)N(S(=O)(=O)c2ccc3ccccc3c2)[C@H]2CCN(C(C)=O)[C@H]12 (relative stereo) [Example 24]	human neutrophil elastase (Homo sapiens, UniProt P08246)	Condition met
CC(C)[C@H]1C(=O)N(S(C)(=O)=O)[C@H]2CCN(S(=O)(=O)c3ccc(N)cc3)[C@H]12 (relative stereo) [Example 237]	human neutrophil elastase (Homo sapiens, UniProt P08246)	Condition met
CCC[C@@H]1C(=O)N(S(C)(=O)=O)[C@@H]2CCN(C(=O)CCCCCN3CCCCCC3)[C@@H]12 [Example 117, hydrochloride]	human neutrophil elastase (Homo sapiens, UniProt P08246)	Condition met
CCC[C@H]1C(=O)N(S(C)(=O)=O)[C@H]2CCN(C(=O)CCCCCN(CC)CC)[C@H]12 (relative stereo) [Example 76]	human neutrophil elastase (Homo sapiens, UniProt P08246)	Condition not met
CCC[C@H]1C(=O)N(S(C)(=O)=O)[C@H]2CCN(S(C)(=O)=O)[C@H]12 (relative stereo) [Example 26]	human neutrophil elastase (Homo sapiens, UniProt P08246)	Condition met
CS[C@H]1C(=O)N(S(C)(=O)=O)[C@H]2CCN(C(=O)OCc3ccccc3)[C@H]12 (relative stereo) [Example 157]	human neutrophil elastase (Homo sapiens, UniProt P08246)	Condition not met

* * *

- experimentalSystem: human neutrophil elastase (Homo sapiens)
- testName: In vitro assay of human neutrophil elastase (HNE)
- Assay type: biochemical
- conditionParameters: 118 nM purified human neutrophil elastase, pH 8.6, 15 min incubation at 30° C., MeO-succinyl-alanyl-alanyl-prolyl-valyl-p-nitroanilide substrate; read-out: HNE IC50
pIC50: −log10 of the molar value. Where a name gives a salt, the structure may show the parent alone.
Each entry below carries its reported pIC50.
measureName: pIC50

compound	measureName	number
CCC[C@H]1C(=O)N(S(C)(=O)=O)[C@H]2CCN(C(=O)CCCN3CCC3)[C@H]12 (relative stereo) [Example 84]	pIC50	6.87
CCC[C@H]1C(=O)N(S(C)(=O)=O)[C@H]2CCN(C(=O)CCN3CCCC3)[C@H]12 (relative stereo) [Example 93, hydrochloride]	pIC50	7.05
CC(C)[C@H]1C(=O)N(S(C)(=O)=O)[C@H]2CCN(C(=O)c3ccc(CN4CCCCC4)o3)[C@H]12.Cl (relative stereo) [Example 250, hydrochloride]	pIC50	7.68
CCCCOc1ccc(S(=O)(=O)N2CC[C@H]3[C@H]2[C@@H](C(C)C)C(=O)N3S(C)(=O)=O)cc1 (relative stereo) [Example 230]	pIC50	7.04
CCC[C@H]1C(=O)N(S(=O)(=O)c2cccs2)[C@H]2CCN(C(=O)CCCCCN3CCCCC3)[C@H]12 (relative stereo) [Example 169]	pIC50	7.54
CCCCOc1ccc(C(=O)N2CC[C@H]3[C@H]2[C@@H](CCC)C(=O)N3S(C)(=O)=O)cc1 (relative stereo) [Example 239]	pIC50	7.74
CCC[C@H]1C(=O)N(S(C)(=O)=O)[C@H]2CCN(S(=O)(=O)c3ccccc3N)[C@H]12 (relative stereo) [Example 236]	pIC50	7.74
CC(C)[C@H]1C(=O)N(S(C)(=O)=O)[C@H]2CCN(S(=O)(=O)c3ccc(CN4CCCCCC4)cc3)[C@H]12 (relative stereo) [Example 199, hydrochloride]	pIC50	7.00
CC(C)[C@H]1C(=O)N(S(C)(=O)=O)[C@H]2CCN(S(=O)(=O)c3ccc(S(C)(=O)=O)cc3)[C@H]12 (relative stereo) [Example 227]	pIC50	6.93
CCC[C@H]1C(=O)N(S(=O)(=O)CC)[C@H]2CCN(C(=O)CCN3CCCCC3)[C@H]12 (relative stereo) [Example 160]	pIC50	6.92
C=CC[C@H]1C(=O)N(S(=O)(=O)/C=C/c2ccccc2)[C@H]2CCN(C(=O)OCc3ccccc3)[C@H]12 (relative stereo) [Example 44]	pIC50	7.03
C=CC[C@H]1C(=O)N(S(=O)(=O)Cc2ccccc2)[C@H]2CCN(C(=O)OCc3ccccc3)[C@H]12 (relative stereo) [Example 21]	pIC50	6.31

* * *

- experimentalSystem: human neutrophil elastase (Homo sapiens, UniProt P08246)
- testName: In vitro assay of human neutrophil elastase (HNE)
- Format: biochemical
- conditionParameters: 118 nM purified human neutrophil elastase, pH 8.6, 15 min incubation at 30° C., MeO-succinyl-alanyl-alanyl-prolyl-valyl-p-nitroanilide substrate; read-out: HNE IC50
Structures can show the parent of a compound that is named as a salt.
Each entry below carries its reported IC50.

molecule	experimentalSystem	IC50, nM
CCC[C@H]1C(=O)N(S(C)(=O)=O)[C@H]2CCN(S(=O)(=O)c3ccccc3[N+](=O)[O-])[C@H]12 (relative stereo)	human neutrophil elastase (Homo sapiens, UniProt P08246)	87
CCC[C@H]1C(=O)N(S(C)(=O)=O)[C@H]2CCN(S(=O)(=O)c3ccc(CN(C)C)cc3)[C@H]12 (relative stereo) [Example 196, hydrochloride]	human neutrophil elastase (Homo sapiens, UniProt P08246)	34
CC(=O)N1CCN(Cc2ccc(C(=O)N3CC[C@H]4[C@H]3[C@@H](C(C)C)C(=O)N4S(C)(=O)=O)cc2)CC1 (relative stereo) [Example 185, hydrochloride]	human neutrophil elastase (Homo sapiens, UniProt P08246)	33
CC(C)[C@H]1C(=O)N(S(C)(=O)=O)[C@H]2CCN(C(=O)c3ccc(CN4CCCCCC4)cc3)[C@H]12 (relative stereo) [Example 178, hydrochloride]	human neutrophil elastase (Homo sapiens, UniProt P08246)	68
CCC[C@H]1C(=O)N(S(=O)(=O)c2cccc3ccccc23)[C@H]2CCN(C(=O)C3CCNCC3)[C@H]12 (relative stereo) [Example 17, trifluoroacetate]	human neutrophil elastase (Homo sapiens, UniProt P08246)	342
CC(C)[C@H]1C(=O)N(S(C)(=O)=O)[C@H]2CCN(C(=O)c3ccc(CN4C(C)CCC4C)cc3)[C@H]12.Cl (relative stereo) [Example 186, hydrochloride]	human neutrophil elastase (Homo sapiens, UniProt P08246)	53
CCC[C@H]1C(=O)N(S(C)(=O)=O)[C@H]2CCN(C(=O)CCCN(CC)CC)[C@H]12 (relative stereo)	human neutrophil elastase (Homo sapiens, UniProt P08246)	198
CCC[C@H]1C(=O)N(S(=O)(=O)c2ccccn2)[C@H]2CCN(C(=O)CCN3CCCCC3)[C@H]12 (relative stereo) [Example 171, hydrochloride]	human neutrophil elastase (Homo sapiens, UniProt P08246)	39
CCC[C@H]1C(=O)N(S(C)(=O)=O)[C@H]2CCN(S(=O)(=O)c3ccccc3)[C@H]12 (relative stereo)	human neutrophil elastase (Homo sapiens, UniProt P08246)	10
CCC[C@H]1C(=O)N(S(C)(=O)=O)[C@H]2CCN(C(=O)CCN3CCN(C)CC3)[C@H]12 (relative stereo) [Example 94, dihydrochloride]	human neutrophil elastase (Homo sapiens, UniProt P08246)	81
CC(C)[C@H]1C(=O)N(S(C)(=O)=O)[C@H]2CCN(C(=O)c3ccc(CN(C)C)cc3)[C@H]12.Cl (relative stereo) [Example 175, hydrochloride]	human neutrophil elastase (Homo sapiens, UniProt P08246)	74
